Test system: Reaginic Passive Cutaneous Anaphylaxis (PCA)
Assay: Rat Reaginic Passive Cutaneous Anaphylaxis (PCA)
Type: in vivo
Conditions: ip, 5 mg/kg, 10-15 min before intravenous antigen challenge, read-out: percent inhibition (PCA test)
Procedure: The compounds of the invention are new chemical substances of value as pharmacological agents which prevent the allergic response in mammals by inhibition of the release of such allergic mediators, as histamine. […] To quantitate the PCA test, the mean diameter of each wheal spot was graphed as a function of the relative antiserum concentration. […] The statistical significance of the results was determined by Student's t test (p≤0.05). […]
VALUE_KIND: inhibition in vivo at 5 mg/kg (%)

>>> observed_result("CCn1c2ccccc2c2oc(C(=O)Nc3nnn[nH]3)cc(=O)c21")
100
>>> observed_result("Cn1c2ccc(Cl)cc2c2oc(C(=O)O)cc(=O)c21 [8-Cl/CH3 A, reference compound]")
23
>>> observed_result("CCn1c2ccccc2c2oc(-c3nnn[nH]3)cc(=O)c21")
100
>>> observed_result("Cn1c2ccccc2c2oc(C(=O)Nc3nnn[nH]3)cc(=O)c21")
100
>>> observed_result("Cc1ccc2c(c1)c1oc(C(=O)Nc3nnn[nH]3)cc(=O)c1n2C")
100
